System: human lung cancer strain NCI-H441
Format: cell-based
Labelling field: enter Yes if recorded IC50 is less than 4 nM. Enter No if it equals or exceeds that cut-off.

Prompt line: Report whether reported IC50 is lower than 4 nM (strictly) for CCCC[C@H]1C(=O)N[C@@H]([C@@H](C)CC)C(=O)N(C)CC(=O)N(C)[C@H]2C/C=C\CCN(C2=O)[C@@H](Cc2ccc(C(F)(F)F)cc2)C(=O)N(C)CC(=O)N[C@@H](CCc2ccc(C(F)(F)F)c(Cl)c2)C(=O)N2C[C@H](OCC)C[C@H]2C(=O)NC2(CC(C)(C)C2)C(=O)N(C)[C@@H](C2CCCC2)C(=O)N(C)[C@H](C(=O)N(C)C)CC(=O)N1C
Response line: Yes

Prompt line: Hello, I'm reviewing records and need to know if IC50 of CCCOC[C@H]1C(=O)N[C@@H]([C@@H](C)CC)C(=O)N(C)CC(=O)N(C)[C@H]2C/C=C\CCN(C2=O)[C@@H](Cc2ccc(C)cc2)C(=O)N(C)CC(=O)N[C@@H](CCc2cc(F)c(C(F)(F)F)c(F)c2)C(=O)N2C[C@H](OCC)C[C@H]2C(=O)NC2(CC(C)(C)C2)C(=O)N(C)[C@@H](C2CCCC2)C(=O)N(C)[C@H](C(=O)N(C)CC)CC(=O)N1C is below 4 nM. Could you check?
Response line: No

Prompt line: Field: below-cutoff. Rule: recorded IC50 strictly less than 4 nM. Subject: CC[C@H](C)[C@@H]1NC(=O)[C@H](CCOC)N(C)C(=O)C[C@@H](C(=O)N(C)CC)N(C)C(=O)[C@H](C2CCCC2)N(C)C(=O)C2(CC(C)(C)C2)NC(=O)[C@@H]2C[C@H](C)CN2C(=O)[C@H](CCc2cc(F)c(C(F)(F)F)c(F)c2)NC(=O)CN(C)C(=O)[C@H](Cc2ccc(C(F)(F)F)cc2)N2CC/C=C\C[C@@H](C2=O)N(C)C(=O)CN(C)C1=O
Response line: No

Prompt line: Decide: IC50 of CCC[C@H]1C(=O)N[C@@H](C2CCCC2)C(=O)N(C)CC(=O)N(C)[C@H]2C/C=C\CCN(C2=O)[C@@H](Cc2ccc(C)cc2)C(=O)N(C)CC(=O)N[C@@H](CCc2cc(F)c(C(F)(F)F)c(F)c2)C(=O)N2C[C@H](OCC)C[C@H]2C(=O)NC2(CC(C)(C)C2)C(=O)N(C)[C@@H](C2CCCC2)C(=O)N(C)[C@H](C(=O)N(C)C)CC(=O)N1C strictly below 4 nM?
Response line: No

====

System: human lung cancer strain NCI-H441
Assay type: cell-based
Where a SMILES comes first, the peptide text is derived from it. Bridges are numbered along the chain shown (N, C = ends). [ ]: non-standard residue; d: D form. The star is where a group is joined. hPhe(3,5-F2-4-CF3) = N[C@@H](CCc1cc(F)c(C(F)(F)F)c(F)c1)C(=O)O; hPhe(3-Cl-4-CF3) = N[C@@H](CCc1ccc(C(F)(F)F)c(Cl)c1)C(=O)O; NPrPhe(4-CF3) = CCCN[C@@H](Cc1ccc(C(F)(F)F)cc1)C(=O)O; NMeGly(cPent) = CN[C@H](C(=O)O)C1CCCC1; Ac4c(3,3-F2) = NC1(C(=O)O)CC(F)(F)C1; NMeD = CN[C@@H](CC(=O)O)C(=O)O; NMeL = CN[C@@H](CC(C)C)C(=O)O; N(Me)CH2CH2OMe = COCCN(C)*; Morpholide = C1CN(*)CCO1; Ac5c = NC1(C(=O)O)CCCC1; Aze = O=C(O)[C@@H]1CCN1; Sar = CNCC(=O)O
pIC50 by entry:
pIC50 here is simply -log10 of the concentration when that concentration is written in mol/L.

Some compounds with known pIC50 results, for comparison:
compound	test_readout	value
CC[C@H](C)[C@@H]1NC(=O)[C@H](COC)N(C)C(=O)C[C@@H](C(=O)N2CCOCC2)N(C)C(=O)[C@H](C2CCCC2)N(C)C(=O)C2(CCC2)NC(=O)[C@@H]2C[C@@H](OCC(C)C)CN2C(=O)[C@H](CCc2cc(F)c(C(F)(F)F)c(F)c2)NC(=O)CN(C)C(=O)[C@H](Cc2ccc(C(F)(F)F)cc2)N2CCCCC[C@@H](C2=O)N(C)C(=O)CN(C)C1=O	pIC50	6.91
CCO[C@@H]1C[C@H]2C(=O)NC3(CC(C)(C)C3)C(=O)N(C)[C@@H](C3CCCC3)C(=O)N(C)[C@H](C(=O)N(C)CC)CC(=O)N(C)[C@@H](COC)C(=O)N[C@@H]([C@@H](C)CC)C(=O)N(C)CC(=O)N(C)[C@H]3C/C=C\CCN(C3=O)[C@@H](Cc3ccc(C(F)(F)F)cc3)C(=O)N(C)CC(=O)N[C@@H](CCc3ccc(C(F)(F)F)c(Cl)c3)C(=O)N2C1	pIC50	8.29
CCCN(C)C(=O)[C@@H]1CC(=O)N(C)[C@@H](CC)C(=O)N[C@@H]([C@@H](C)CC)C(=O)N(C)CC(=O)N(C)[C@H]2C/C=C\CCN(C2=O)[C@@H](Cc2ccc(C(F)(F)F)cc2)C(=O)N(C)CC(=O)N[C@@H](CCc2cc(F)c(C(F)(F)F)c(F)c2)C(=O)N2C[C@H](OCC)C[C@H]2C(=O)NC2(CC(F)(F)C2)C(=O)N(C)[C@@H](C2CCCC2)C(=O)N1C	pIC50	8.19
CCCN1C(=O)[C@@H]2CCN2C(=O)CN(C)C(=O)[C@H]([C@@H](C)CC)NC(=O)[C@H](CC(C)C)N(C)C(=O)C[C@@H](C(=O)N2CCOCC2)N(C)C(=O)[C@H](C2CCCC2)N(C)C(=O)C2(CC(F)(F)C2)NC(=O)[C@@H]2CCCN2C(=O)[C@H](CCc2cc(F)c(C(F)(F)F)c(F)c2)NC(=O)CN(C)C(=O)[C@@H]1Cc1ccc(C(F)(F)F)cc1 [PP0802] ([NMeL]I[Sar][Aze][NPrPhe(4-CF3)][Sar][hPhe(3,5-F2-4-CF3)]P[Ac4c(3,3-F2)][NMeGly(cPent)][NMeD]-Morpholide; lactam N-11)	pIC50	8.19
CCCN(C)C(=O)[C@@H]1CC(=O)N(C)[C@@H](C2CCC2)C(=O)N[C@@H]([C@@H](C)CC)C(=O)N(C)CC(=O)N(C)[C@H]2C/C=C\CCN(C2=O)[C@@H](Cc2ccc(C(F)(F)F)cc2)C(=O)N(C)CC(=O)N[C@@H](CCc2cc(F)c(C(F)(F)F)c(F)c2)C(=O)N2C[C@H](OCC)C[C@H]2C(=O)NC2(CCC2)C(=O)N(C)[C@@H](C2CCCC2)C(=O)N1C	pIC50	7.79

Prompt line: Provide value of pIC50 for this record tested with human lung cancer strain NCI-H441: CCCN1C(=O)CN(C)C(=O)CN(C)C(=O)[C@H]([C@@H](C)CC)NC(=O)[C@H](CC(C)C)N(C)C(=O)C[C@@H](C(=O)N(C)CCOC)N(C)C(=O)[C@H](C2CCCC2)N(C)C(=O)C2(CCCC2)NC(=O)[C@@H]2CCCN2C(=O)[C@H](CCc2ccc(C(F)(F)F)c(Cl)c2)NC(=O)CN(C)C(=O)[C@@H]1Cc1ccc(C(F)(F)F)cc1 [PP0391] ([NMeL]I[Sar][Sar][NPrPhe(4-CF3)][Sar][hPhe(3-Cl-4-CF3)]P[Ac5c][NMeGly(cPent)][NMeD]-{N(Me)CH2CH2OMe}; lactam N-11)
Response line: 8.96

Prompt line: Short answer please: pIC50, human lung cancer strain NCI-H441, entry CCO[C@@H]1C[C@H]2C(=O)NC3(CCC3)C(=O)N(C)[C@@H](C(CC)CC)C(=O)N(C)[C@H](C(=O)N3CCCCC3)CC(=O)N(C)[C@H]3CCC/C=C/c4ccc(cc4)C[C@@H](C(=O)N(C)CC(=O)N[C@@H](CCc4cc(F)c(C(F)(F)F)c(F)c4)C(=O)N2C1)N1CC/C=C\C[C@@H](C1=O)N(C)C(=O)CN(C1CC1)C(=O)[C@H]([C@@H](C)CC)NC3=O
Response line: 7.56

====

System: human lung cancer strain NCI-H441
Format: cell-based
Readings of IC50 for the listed compounds

Prompt line: Tell me the measured IC50 of CCC[C@H]1C(=O)N[C@@H]([C@@H](C)CC)C(=O)N(C)CC(=O)N(C)[C@H]2C/C=C\CCN(C2=O)[C@@H](Cc2ccc(C(F)(F)F)cc2)C(=O)N(C)CC(=O)N[C@@H](CCc2cc(F)c(C(F)(F)F)c(F)c2)C(=O)N2C[C@H](OCC)C[C@H]2C(=O)N(C)C2(CCC2)C(=O)N(C)[C@@H](C2CCCC2)C(=O)N(C)[C@H](C(=O)N2CCCCC2)CC(=O)N1C , please.
Response line: 6.7 nM

Prompt line: Endpoint output: IC50 of CCC[C@H]1C(=O)N[C@@H]([C@@H](C)CC)C(=O)N(C2CC2)CC(=O)N(C)[C@H]2C/C=C\CCN(C2=O)[C@@H](Cc2ccc(C)cc2)C(=O)N(C)CC(=O)N[C@@H](CCc2ccc(C(F)(F)F)c(OC)c2)C(=O)N2C[C@H](OCC)C[C@H]2C(=O)N(C)C2(CCC2)C(=O)N(C)[C@@H](C2CCCC2)C(=O)N(C)[C@H](C(=O)N2CCCC2)CC(=O)N1C . Value?
Response line: 4.7 nM
